target: recombinant human EGFR exon 19 deletion/C797S double mutant protein (Homo sapiens (Human), UniProt P00533, C797S/DEL746-750); assay: Biological Activity Assay C: biochemical assay against EGFR exon 19 deletion/C797S protein (EGFR d19/CS)
Sequence (P00533 other isoform, or with tags, fused parts or gaps C797S/del 1-668/del 746-750 limits assumed): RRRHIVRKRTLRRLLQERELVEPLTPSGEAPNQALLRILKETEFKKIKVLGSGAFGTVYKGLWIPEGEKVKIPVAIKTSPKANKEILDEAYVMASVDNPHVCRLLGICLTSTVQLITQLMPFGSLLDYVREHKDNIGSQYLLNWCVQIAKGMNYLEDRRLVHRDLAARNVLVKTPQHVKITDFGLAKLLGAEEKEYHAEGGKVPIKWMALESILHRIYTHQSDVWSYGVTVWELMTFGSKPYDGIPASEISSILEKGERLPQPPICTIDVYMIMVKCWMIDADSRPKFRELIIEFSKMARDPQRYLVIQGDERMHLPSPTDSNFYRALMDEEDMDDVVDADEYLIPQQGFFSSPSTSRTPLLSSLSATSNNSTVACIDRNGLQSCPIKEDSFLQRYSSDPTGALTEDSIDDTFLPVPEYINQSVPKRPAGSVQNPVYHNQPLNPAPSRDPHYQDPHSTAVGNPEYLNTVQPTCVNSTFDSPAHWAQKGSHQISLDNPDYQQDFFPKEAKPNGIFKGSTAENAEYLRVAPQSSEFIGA
Record form. Attribute: pIC50. Fill in for each entry.
In plain terms, pIC50 is the concentration in mol/L turned into minus its base-10 logarithm.

### Prompt Fill blank: measured pIC50 of the compound Cc1cccc(-c2cc3c(-c4cn(C5CS(=O)(=O)C5)nc4-c4ccc(F)cc4)ncnc3o2)n1 is ____.
### Response 9.70

### Prompt I have this compound here, CC(C)(O)Cn1cc(-c2ncnc3oc(-c4ccccc4)cc23)c(-c2ccccc2F)n1 , and I need its recorded pIC50.
### Response 9.74

### Prompt Form field: reported pIC50 of C[C@@H]1OCC[C@H]1n1cc(-c2ncnc3oc(-c4ccccc4)cc23)c(-c2ccc(F)cc2)n1 (racemic) [Example 199]
### Response 9.04

### Prompt Name the recorded pIC50 for NS(=O)(=O)CCn1cc(-c2ncnc3oc(-c4ccccc4)cc23)c(-c2ccc(F)cc2)n1 .
### Response 9.39

### Prompt Please give the measured pIC50 for this compound: Cn1cnc(-c2cc3c(-c4cn([C@H]5C[C@H](C#N)C5)nc4-c4ccc(F)cc4)ncnc3o2)c1
### Response 9.64

### Prompt Name the recorded pIC50 for CS(=O)(=O)CCn1nc(-c2ccc(F)cc2)c(-c2ncnc3oc(-c4ccccc4)cc23)n1 .
### Response 8.87

### Prompt Which pIC50 value is on record for Fc1ccc(-c2nn([C@H]3C[C@H]4CC[C@@H](C3)O4)cc2-c2ncnc3oc(-c4ccccc4)cc23)cc1 ?
### Response 8.84

### Prompt Consider the compound Cn1cnc(-c2cc3c(-c4cn(CCC#N)nc4-c4ccc(F)cc4)ncnc3o2)c1 and give its measured pIC50.
### Response 10.11

### Prompt Given NC(=O)c1cccc(-c2cc3c(-c4cn(C5CS(=O)(=O)C5)nc4-c4ccc(F)cc4)ncnc3o2)c1 , state its recorded pIC50.
### Response 9.44

###

Exercise: for every item that follows, state its recorded IC50.
target: recombinant human EGFR exon 19 deletion/C797S double mutant protein (Homo sapiens (Human), UniProt P00533, C797S/DEL746-750); experiment: Biological Activity Assay C: biochemical assay against EGFR exon 19 deletion/C797S protein (EGFR d19/CS)
Answer in nM, number only, no unit symbol.

### Prompt I am curious: what IC50 value has been reported for O=S1(=O)CC(CCn2cc(-c3ncnc4oc(-c5ccccc5)cc34)c(-c3ccc(F)cc3)n2)C1 ?
### Response 0.368

### Prompt So what's the measured IC50 for this one? O=S1(=O)CC(n2cc(-c3ncnc4oc(-c5cccc(C6CC6)c5)cc34)c(-c3ccc(F)cc3)n2)C1
### Response 2.27

### Prompt Return reported IC50; argument: Cn1cnc(-c2cc3c(-c4cn(C5CC5(F)F)nc4-c4ccc(F)cc4)ncnc3o2)c1 (single isomer, unassigned)
### Response 0.291

### Prompt Name the reported IC50 value associated with the compound CN(C)S(=O)(=O)CCn1cc(-c2ncnc3oc(-c4ccccc4)cc23)c(-c2ccc(F)cc2)n1
### Response 1.02

### Prompt Look at this compound and give its reported IC50. CN1CCN(c2ccc(-c3nc4c(-c5cn(CCCO)nc5-c5ccc(F)cc5)ccnc4[nH]3)cc2)CC1
### Response 0.173

### Prompt # IC50 lookup, item CCn1cc(-c2ncnc3oc(-c4ccccc4)cc23)c(-c2ccc(F)cc2)n1
### Response 0.39

### Prompt Fill in: IC50 of CC(C)(O)Cn1cc(-c2ncnc3oc(-c4cnn5c4OCCC5(C)C)cc23)c(-c2ccc(F)cc2)n1 is ___
### Response 0.203

### Prompt Value lookup for IC50; key = O=S1(=O)CCC[C@H](n2cc(-c3ncnc4oc(-c5ccccc5)cc34)c(-c3ccc(F)cc3)n2)C1 (single isomer, unassigned)
### Response 4.23
